experimental protocol: self-splicing fitness, log relative to wild type (ln ratio); higher = more splicing; Tetrahymena group I intron in knt gene, E. coli kanamycin selection, DiMSum; sequences stand for … in CUCUCU…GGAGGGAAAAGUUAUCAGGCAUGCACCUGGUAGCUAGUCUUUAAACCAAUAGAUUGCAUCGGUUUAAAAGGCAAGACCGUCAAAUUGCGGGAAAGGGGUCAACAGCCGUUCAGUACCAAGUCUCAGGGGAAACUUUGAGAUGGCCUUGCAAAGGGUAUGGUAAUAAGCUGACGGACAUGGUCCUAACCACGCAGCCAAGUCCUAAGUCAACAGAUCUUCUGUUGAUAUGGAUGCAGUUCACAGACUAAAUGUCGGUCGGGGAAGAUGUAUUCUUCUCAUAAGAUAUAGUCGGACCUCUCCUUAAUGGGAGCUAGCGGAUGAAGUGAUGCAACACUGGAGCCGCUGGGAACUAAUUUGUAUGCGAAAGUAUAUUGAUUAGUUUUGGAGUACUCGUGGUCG;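 note: selection with 25 µg/mL kanamycin versus none on LB agar overnight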
test parameters: 30 °C
// thresholds for self-splicing fitness (ln) classes: interval 1 = under -3, interval 2 = from -3 up to -2, interval 3 = -2 and over

>  <residue sequence>
UACGAGCAAUAUUACGGCGA

>  <group>
interval 3

$$$$
>  <residue sequence>
CUCAAGCAAUAUUACGGAAG

>  <group>
interval 3

$$$$
>  <residue sequence>
AAUCAGCAAUAUUACGAGCA

>  <group>
interval 3

$$$$
>  <residue sequence>
CUCUAGCAAUAUUACGAGAG

>  <group>
interval 2

$$$$
>  <residue sequence>
UGAGAGCAAUAUUACGUUUA

>  <group>
interval 1

$$$$
>  <residue sequence>
UAGAAGCAAUAUUACGAUUG

>  <group>
interval 3

$$$$
>  <residue sequence>
UAAUAGCAAUAUUACGUGCG

>  <group>
interval 3

$$$$
>  <residue sequence>
UUUCAGCAAUAUUACGAUCU

>  <group>
interval 2

$$$$
>  <residue sequence>
ACCGAGCAAUAUUACGAUCU

>  <group>
interval 3

$$$$
>  <residue sequence>
CGGCAGCAAUAUUACGCAUA

>  <group>
interval 2

$$$$
>  <residue sequence>
ACUCAGCAAUAUUACGGUAG

>  <group>
interval 1

$$$$
>  <residue sequence>
AUCGAGCAAUAUUACGGGUU

>  <group>
interval 1

$$$$
>  <residue sequence>
GUCAAGCAAUAUUACGGAUG

>  <group>
interval 2

$$$$
>  <residue sequence>
CACCAGCAAUAUUACGAAUC

>  <group>
interval 1

$$$$
>  <residue sequence>
GCCGAGCAAUAUUACGACUA

>  <group>
interval 3

$$$$
>  <residue sequence>
AGUAAGCAAUAUUACGUCUA

>  <group>
interval 3

$$$$
>  <residue sequence>
UGUCAGCAAUAUUACGGACA

>  <group>
interval 1

$$$$
>  <residue sequence>
AGAGAGCAAUAUUACGGUGU

>  <group>
interval 1

$$$$
>  <residue sequence>
UCAGAGCAAUAUUACGAGUU

>  <group>
interval 2

$$$$
>  <residue sequence>
AUUAAGCAAUAUUACGAUUA

>  <group>
interval 3

$$$$
>  <residue sequence>
UGUCAGCAAUAUUACGUGAA

>  <group>
interval 3

$$$$
>  <residue sequence>
GUAUAGCAAUAUUACGUCUU

>  <group>
interval 3

$$$$
>  <residue sequence>
UAGAAGCAAUAUUACGCAAA

>  <group>
interval 3

$$$$
>  <residue sequence>
GCGGAGCAAUAUUACGUGCA

>  <group>
interval 2

$$$$
>  <residue sequence>
UUCGAGCAAUAUUACGGACA

>  <group>
interval 2

$$$$
>  <residue sequence>
CCCAAGCAAUAUUACGGCAC

>  <group>
interval 1

$$$$
>  <residue sequence>
UACUAGCAAUAUUACGAAGA

>  <group>
interval 2

$$$$
>  <residue sequence>
GGGCAGCAAUAUUACGGUAA

>  <group>
interval 3

$$$$
>  <residue sequence>
UUGUAGCAAUAUUACGACAG

>  <group>
interval 3

$$$$
>  <residue sequence>
CUAAAGCAAUAUUACGGAGU

>  <group>
interval 1

$$$$
>  <residue sequence>
ACAAAGCAAUAUUACGACUC

>  <group>
interval 3

$$$$
>  <residue sequence>
GCAUAGCAAUAUUACGGCUA

>  <group>
interval 3

$$$$
>  <residue sequence>
GAGUAGCAAUAUUACGUCAG

>  <group>
interval 2

$$$$
>  <residue sequence>
CCCCAGCAAUAUUACGCCCU

>  <group>
interval 1

$$$$
>  <residue sequence>
CGAUAGCAAUAUUACGGUCU

>  <group>
interval 3

$$$$
>  <residue sequence>
UUUAAGCAAUAUUACGCGAA

>  <group>
interval 3

$$$$
>  <residue sequence>
GCCGAGCAAUAUUACGUCAG

>  <group>
interval 1

$$$$
>  <residue sequence>
CAGGAGCAAUAUUACGCCCA

>  <group>
interval 2

$$$$
>  <residue sequence>
CUAGAGCAAUAUUACGUACU

>  <group>
interval 1

$$$$
>  <residue sequence>
UGCAAGCAAUAUUACGUUUA

>  <group>
interval 3

$$$$
>  <residue sequence>
UGCCAGCAAUAUUACGCGUU

>  <group>
interval 3

$$$$
>  <residue sequence>
GUAAAGCAAUAUUACGUGUG

>  <group>
interval 3

$$$$
>  <residue sequence>
CAACAGCAAUAUUACGCUUA

>  <group>
interval 2

$$$$
>  <residue sequence>
AUAGAGCAAUAUUACGCGCG

>  <group>
interval 3

$$$$
>  <residue sequence>
AAUCAGCAAUAUUACGAACG

>  <group>
interval 3

$$$$
>  <residue sequence>
UCCUAGCAAUAUUACGUAGG

>  <group>
interval 1

$$$$
>  <residue sequence>
UGCCAGCAAUAUUACGGGCC

>  <group>
interval 1

$$$$
>  <residue sequence>
AAUAAGCAAUAUUACGGUAC

>  <group>
interval 2

$$$$
>  <residue sequence>
CUCGAGCAAUAUUACGUUUG

>  <group>
interval 1

$$$$
>  <residue sequence>
AGCGAGCAAUAUUACGCAUU

>  <group>
interval 2

$$$$
>  <residue sequence>
GGAGAGCAAUAUUACGGUGU

>  <group>
interval 1

$$$$
>  <residue sequence>
AUCCAGCAAUAUUACGGUCA

>  <group>
interval 3

$$$$
>  <residue sequence>
AAUAAGCAAUAUUACGGUUG

>  <group>
interval 2

$$$$
>  <residue sequence>
CACGAGCAAUAUUACGCACU

>  <group>
interval 2

$$$$
>  <residue sequence>
GGCUAGCAAUAUUACGGAGC

>  <group>
interval 1

$$$$
>  <residue sequence>
AGUGAGCAAUAUUACGGGCC

>  <group>
interval 1

$$$$
>  <residue sequence>
UAUGAGCAAUAUUACGCCCG

>  <group>
interval 2

$$$$

Value source: the supplement of paper PMC7877785
